test system: COLO 205; test: NCI tumour cell line growth inhibition, 48 h
Active and inactive are the calls of the source. Rule as the data show it: active = GI50 up to about 1.1 µM and inactive = higher.
Reported GI50 by item:

Example entries begin here.
                                   compound  measure              reading
0  CC1(C)OC2C(CO)OC(n3ccc(N)nc3=O)C2O1 (configuration not stated)     GI50  > 100 µM (inactive)
1  O=c1c2ccc(S(=O)(=O)c3ccc4c(=O)n5c6ccccc6nc5c5cccc3c45)c3cccc(c32)c2nc3ccccc3n12     GI50  > 100 µM (inactive)
2  Nc1ccn(C2OC(CO)C(O)C2O)c(=O)n1 (configuration not stated)     GI50    139 µM (inactive)
3     CN(CCCCN)c1ccc2c(=O)[nH][nH]c(=O)c2c1     GI50  > 100 µM (inactive)
4  COc1ccc(/C=C2\C(=O)N(NC(C)=O)c3ccccc32)cc1     GI50  > 100 µM (inactive)

The recorded GI50 with COLO 205 for O=C1C(=O)C(CCCO)(CCCO)CCCCCCCCC1(CCCO)CCCO was > 100 µM (inactive)

Reported GI50 (COLO 205) for entry COC(=O)C1=CC(=O)C(C(=O)Nc2ccc(OC)cc2)C(c2ccccc2)O1 (configuration not stated) is > 100 µM (inactive)

Bench note, COLO 205: entry O=C(O)c1ccc2nc(-c3ccccn3)c(-c3ccccn3)nc2c1 , its GI50 = > 100 µM (inactive)

Entry O=C(NNS(=O)(=O)c1ccc(Br)cc1)c1ccc(Cl)cc1NC(=O)C12CC3CC(CC(C3)C1)C2 : GI50 on COLO 205 = 12 µM (inactive)

I looked up COc1ccc2c(c1)OCc1c-2oc2ccccc2c1=O and its GI50 for COLO 205 was > 100 µM (inactive)

COLO 205 assay, compound CN(C)c1ccc(C(C#N)NNC(=O)Cc2ccccc2)cc1 (configuration not stated) , recorded GI50 = > 100 µM (inactive)

Here COc1cc(NS(C)(=O)=O)ccc1NCc1c[nH]c2ccc3nc(C)ccc3c12 was tested on COLO 205, and its GI50 came to 55 µM (inactive)
